System: 313798-341-R-J2-PDC spheroids, viability;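 also: spheroids exposed to compounds for seven days; 100% = DMSO vehicle control viability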
METHOD_SUMMARY: Anticancer human tumor 313798-341-R-J2-PDC patient-derived cervical squamous cell carcinoma cell line growth inhibition [PI3K]
EXPERIMENTAL_PARAMETERS: second compound 0.00316 µM; first compound 0.1 µM; hits give low values; spheroids with HUVEC and MSC
READOUT_LABEL: viability, T/C (%)

1. Cn1ncc(Cl)c1-c1cc(C(=O)NC(CN)Cc2cccc(F)c2)sc1Cl (configuration not stated) + CC(Nc1ccc2c(c1)OCCn1cc(N3C(=O)OCC3C(F)F)nc1-2)C(N)=O; 91.3
2. Cn1nccc1Nc1nccc(-c2ccn(C(CO)c3ccc(Cl)c(F)c3)c(=O)c2)n1 (configuration not stated) + CC(Nc1ccc2c(c1)OCCn1cc(N3C(=O)OCC3C(F)F)nc1-2)C(N)=O; 96
3. C=CC(=O)N1CCN(c2nc(=O)n(-c3c(C)ccnc3C(C)C)c3nc(-c4c(O)cccc4F)c(F)cc23)C(C)C1 (configuration not stated) + CC(Nc1ccc2c(c1)OCCn1cc(N3C(=O)OCC3C(F)F)nc1-2)C(N)=O; 92.3
4. C[C@@H](NC(=O)c1ncnc(N)c1Cl)c1ncc(C(=O)Nc2cc(C(F)(F)F)c(Cl)cn2)s1 + COc1c(OCCCN2CCOCC2)ccc2c3n(c(=NC(=O)c4cnc(N)nc4)nc12)CCN3; 99
5. CC1(C)CCC(CN2CCN(c3ccc(C(=O)NS(=O)(=O)c4ccc(NCC5CCOCC5)c([N+](=O)[O-])c4)c(Oc4cnc5[nH]ccc5c4)c3)CC2)=C(c2ccc(Cl)cc2)C1 + CC(Nc1ccc2c(c1)OCCn1cc(N3C(=O)OCC3C(F)F)nc1-2)C(N)=O; 92.4
6. CC(=O)c1c(C)c2cnc(Nc3ccc(N4CCNCC4)cn3)nc2n(C2CCCC2)c1=O + CC(Nc1ccc2c(c1)OCCn1cc(N3C(=O)OCC3C(F)F)nc1-2)C(N)=O; 102
7. CCCS(=O)(=O)Nc1ccc(F)c(C(=O)c2c[nH]c3ncc(-c4ccc(Cl)cc4)cc23)c1F + CC(Nc1ccc2c(c1)OCCn1cc(N3C(=O)OCC3C(F)F)nc1-2)C(N)=O; 98.7
8. CC(C)n1nc(-c2ccc3oc(N)nc3c2)c2c(N)ncnc21 + COc1c(OCCCN2CCOCC2)ccc2c3n(c(=NC(=O)c4cnc(N)nc4)nc12)CCN3; 39.6
9. CC(C)NCC(C(=O)N1CCN(c2ncnc3c2C(C)CC3O)CC1)c1ccc(Cl)cc1 (configuration not stated) + CC(Nc1ccc2c(c1)OCCn1cc(N3C(=O)OCC3C(F)F)nc1-2)C(N)=O; 94.9
10. CNC(=O)c1ccc(N2C(=S)N(c3ccc(C#N)c(C(F)(F)F)c3)C(=O)C2(C)C)cc1F + COc1c(OCCCN2CCOCC2)ccc2c3n(c(=NC(=O)c4cnc(N)nc4)nc12)CCN3; 117
11. CC(Cn1ccc(-c2ccc(C#N)c(Cl)c2)n1)NC(=O)c1cc(C(C)O)[nH]n1 (configuration not stated) + CC(Nc1ccc2c(c1)OCCn1cc(N3C(=O)OCC3C(F)F)nc1-2)C(N)=O; 107
12. CCN1CCN(Cc2ccc(Nc3ncc(F)c(-c4cc(F)c5nc(C)n(C(C)C)c5c4)n3)nc2)CC1 + CC(Nc1ccc2c(c1)OCCn1cc(N3C(=O)OCC3C(F)F)nc1-2)C(N)=O; 105

Reference for the values: PubChem BioAssay AID1963982
